# Experiment Notes: Microsomal stability assay, MLM
# Type: in vitro ADME
# Conditions Used: mouse, pH 7.4, 1 μM test compound, 0.5 mg/mL liver microsomes protein, 37° C., 0-60 min, read-out: MLM +/− NADPH: Clint (μL/min/mg protein)
Counter-ions that a name gives are not always drawn.
Please go through the items and note down their microsomal CLint at 1 μM.

Value of measured microsomal CLint at 1 μM for the entry CN(c1ccc(OCC(=O)CNS(C)(=O)=O)cc1)c1cc(Cl)c(OCCCCl)c(Cl)c1 [Compound A23] : ≥ 48 µL/min/mg

Lab note: measured microsomal CLint at 1 μM of Cc1cc(OCCCCl)ccc1C(C)(C)c1ccc(OCC(=O)CNS(C)(=O)=O)cc1 [Compound A2] was ≥ 48 µL/min/mg

The reported microsomal CLint at 1 μM of the compound CC(C)(c1ccc(OCC(=O)CNS(C)(=O)=O)cc1)c1cc(Cl)c(OCc2cccc(Cl)c2)c(Cl)c1 [Compound A37] was ≥ 48 µL/min/mg

The compound listed as Cc1cc(C(C)(C)c2ccc(OCCCCl)cc2)ccc1OCC(=O)CNS(C)(=O)=O [Compound A9] shows microsomal CLint at 1 μM equal to ≥ 48 µL/min/mg

Documented microsomal CLint at 1 μM of CC(C)(c1ccc(OCC(N)=O)cc1)c1cc(Cl)c(OCCCCl)c(Cl)c1 [Compound A42] : < 12 µL/min/mg

// field: microsomal CLint at 1 μM; key: CC(C)(c1ccc(OCC(=O)CNS(C)(=O)=O)cc1)c1ccc(OCCCCl)c(Cl)c1 [Compound A5] ; value = ≥ 48 µL/min/mg

# map each compound to its microsomal CLint at 1 μM
1. CN(CC(=O)CNS(C)(=O)=O)c1ccc(C(C)(C)c2cc(Cl)c(OCCCl)c(Cl)c2)cc1 [Compound A81, hydrochloride]
2. CC(C)(c1ccc(OCC(=O)CS(C)(=O)=O)cc1)c1cc(Cl)c(OCC(O)CCl)c(Cl)c1 (stereo not drawn) [Compound A54]
3. COCC(=O)COc1ccc(C(F)(F)c2cc(Cl)c(OCC(O)CCl)c(Cl)c2)cc1 (stereo not drawn) [Compound A58]

Reply:
12 to 48 µL/min/mg
≥ 48 µL/min/mg
≥ 48 µL/min/mg

From: patent US11485713B2
